# method: in vitro
# test_parameters: human, HeLa cells
reported_metric: cytotoxicity at 24 h, 100 µM (%)
One number for each entry, in %.

[Q] What measured cytotoxicity at 24 h, 100 µM goes with COc1cccc2c1C(=O)c1c(O)c3c(c(O)c1C2=O)C[C@@](O)(C(=O)CO)C[C@@H]3O[C@H]1C[C@H](N)[C@H](O)[C@H](C)O1 [free doxorubicin, doxorubicin] ?
[A] 87

----------
# method: in vitro
# test_parameters: human, HeLa cells
reported_metric: cytotoxicity at 24 h, 10 µM (%)
Answers are plain numbers, in %.

[Q] What measured cytotoxicity at 24 h, 10 µM goes with COc1cccc2c1C(=O)c1c(O)c3c(c(O)c1C2=O)C[C@@](O)(C(=O)CO)C[C@@H]3O[C@H]1C[C@H](N)[C@H](O)[C@H](C)O1 [free doxorubicin, doxorubicin] ?
[A] 45
